System: 349418-098-R-PDC complex spheroid viability
Experiment: Anticancer human tumor 349418-098-R-PDC patient-derived lung adenocarcinoma cell line growth inhibition [RAS]
Settings: second compound 0.003 µM; first compound 1 µM; stronger effect = lower value
attribute.measured: viability, T/C (%)

molecule: C=CC(=O)N1CCN(c2nc(OCC3CCCN3C)nc3c(F)c(-c4nc(N)cc(C)c4C(F)(F)F)c(Cl)cc23)C(C)C1 (configuration not stated) + CCn1c(-c2cccnc2C(C)OC)c2c3cc(ccc31)N1CCOC(CC(NC(=O)C(C(C)C)N(C)C(=O)C3(F)CCN(C(=O)C#CC(C)(C)N(C)C)CC3)C(=O)N3CCCC(N3)C(=O)OCC(C)(C)C2)C1
attribute.measured: viability, T/C
recorded.value: 82.8

molecule: CCN1CCN(Cc2ccc(Nc3ncc(F)c(-c4cc(F)c5nc(C)n(C(C)C)c5c4)n3)nc2)CC1 + CCn1c(-c2cc(N3CCN(C)CC3)cnc2C(C)OC)c2c3cc(ccc31)-c1csc(n1)CC(NC(=O)C1CC1C)C(=O)N1CCCC(N1)C(=O)OCC(C)(C)C2
attribute.measured: viability, T/C
recorded.value: 14

====

System: 349418-098-R-PDC complex spheroid viability
Assay: Anticancer human tumor 349418-098-R-PDC cell line growth inhibition [RAS];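 also: spheroids exposed to compound for seven days before viability readout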
Details: second compound 0.003 µM; first compound 1 µM; stronger effect = lower value
attribute.measured: viability, T/C (%)

compound: C=CC(=O)Nc1cc(Nc2nccc(-c3cn(C)c4ccccc34)n2)c(OC)cc1N(C)CCN(C)C + CCn1c(-c2cccnc2C(C)OC)c2c3cc(ccc31)N1CCOC(CC(NC(=O)C(C(C)C)N(C)C(=O)C3(F)CCN(C(=O)C#CC(C)(C)N(C)C)CC3)C(=O)N3CCCC(N3)C(=O)OCC(C)(C)C2)C1
recorded.value: 60.7
--
compound: CC1(O)CCCC1n1c(=O)c(C(F)F)cc2cnc(NC3CCN(S(C)(=O)=O)CC3)nc21 (stereo not drawn) + CCn1c(-c2cc(N3CCN(C)CC3)cnc2C(C)OC)c2c3cc(ccc31)-c1csc(n1)CC(NC(=O)C1CC1C)C(=O)N1CCCC(N1)C(=O)OCC(C)(C)C2
recorded.value: 20.1
--
compound: CCC(CC)c1cc(NC2CCC(N)C2)n2nccc2n1 (stereo not drawn) + CCn1c(-c2cccnc2C(C)OC)c2c3cc(ccc31)N1CCOC(CC(NC(=O)C(C(C)C)N(C)C(=O)C3(F)CCN(C(=O)C#CC(C)(C)N(C)C)CC3)C(=O)N3CCCC(N3)C(=O)OCC(C)(C)C2)C1
recorded.value: 66.2
--
compound: Nc1ccn(C2OC(CO)C(O)C2(F)F)c(=O)n1 (stereo not drawn) + CCn1c(-c2cc(N3CCN(C)CC3)cnc2C(C)OC)c2c3cc(ccc31)-c1csc(n1)CC(NC(=O)C1CC1C)C(=O)N1CCCC(N1)C(=O)OCC(C)(C)C2
recorded.value: 4.09
--
compound: C=CC(=O)Nc1cc(Nc2nccc(-c3cn(C)c4ccccc34)n2)c(OC)cc1N(C)CCN(C)C + CCn1c(-c2cc(N3CCN(C)CC3)cnc2C(C)OC)c2c3cc(ccc31)-c1csc(n1)CC(NC(=O)C1CC1C)C(=O)N1CCCC(N1)C(=O)OCC(C)(C)C2
recorded.value: 70.3
--
compound: CC(=O)OC12COC1CC(O)C1(C)C(=O)C(O)C3=C(C)C(OC(=O)C(O)C(NC(=O)OC(C)(C)C)c4ccccc4)CC(O)(C(OC(=O)c4ccccc4)C21)C3(C)C (stereo not drawn) + CCn1c(-c2cc(N3CCN(C)CC3)cnc2C(C)OC)c2c3cc(ccc31)-c1csc(n1)CC(NC(=O)C1CC1C)C(=O)N1CCCC(N1)C(=O)OCC(C)(C)C2
recorded.value: 13.4
--
compound: NC1c2ccccc2OC12CCN(c1cnc3c(N4CCCc5ncccc54)n[nH]c3n1)CC2 (stereo not drawn) + CCn1c(-c2cccnc2C(C)OC)c2c3cc(ccc31)N1CCOC(CC(NC(=O)C(C(C)C)N(C)C(=O)C3(F)CCN(C(=O)C#CC(C)(C)N(C)C)CC3)C(=O)N3CCCC(N3)C(=O)OCC(C)(C)C2)C1
recorded.value: 99.4
--
compound: O=C(c1ccc(F)c(F)c1Nc1ccc(I)cc1F)N1CC(O)([C@@H]2CCCCN2)C1 + CCn1c(-c2cccnc2C(C)OC)c2c3cc(ccc31)N1CCOC(CC(NC(=O)C(C(C)C)N(C)C(=O)C3(F)CCN(C(=O)C#CC(C)(C)N(C)C)CC3)C(=O)N3CCCC(N3)C(=O)OCC(C)(C)C2)C1
recorded.value: 5.43
